Test system: SNU-638
procedure text: inhibitory activity against growth of cultured SNU-638 cell line
Type: functional, cell-based
condition label: Homo sapiens

{"input smiles": "CCOC(=O)c1c2c(n(C)c1N)C(=O)c1ccccc1C2=O", "target or test system": "SNU-638", "IC50 [µM]": 1.68}
